tested on: Alternaria solani; assay: Mycelial growth test; format: cell-based; conditions: Alternaria solani, 72 h, AS, 5 ppm, read-out: Percent Fungus Growth Inhibition
Everything with inhibition at 5 ppm lower than 60% is FALSE; everything else, including exactly 60%, is TRUE.

Look over these answered cases.
[
  {
    "MOLECULE": "O=c1c(Cl)nsnc1Oc1cccc2ccccc12",
    "TARGET_DESC": "Alternaria solani",
    "GROUP_LABEL": "FALSE"
  },
  {
    "MOLECULE": "Cc1cc(Oc2nsnc(Cl)c2=O)cc(C)c1Cl",
    "TARGET_DESC": "Alternaria solani",
    "GROUP_LABEL": "FALSE"
  }
]

[Q] Reported inhibition at 5 ppm reaches at least 60% for CC(=O)Nc1ccccc1Oc1nsnc(Cl)c1=O ?
[A] TRUE

[Q] Reported inhibition at 5 ppm reaches at least 60% for O=C(OCc1ccccc1)Oc1ccc(Oc2nsnc(Cl)c2=O)cc1 ?
[A] FALSE

[Q] Reported inhibition at 5 ppm reaches at least 60% for CC(=O)c1ccc(Oc2nsnc(Cl)c2=O)cc1 ?
[A] TRUE

[Q] Reported inhibition at 5 ppm reaches at least 60% for COc1ccc(Oc2nsnc(Cl)c2=O)cc1 ?
[A] TRUE

[Q] Reported inhibition at 5 ppm reaches at least 60% for Cc1ccc(Oc2nsnc(Cl)c2=O)c(C)c1 ?
[A] TRUE

[Q] Reported inhibition at 5 ppm reaches at least 60% for O=c1c(Cl)nsnc1Oc1cccc(C(F)(F)F)c1 ?
[A] FALSE

[Q] Reported inhibition at 5 ppm reaches at least 60% for C[S+]([O-])c1ccc(Oc2nsnc(Cl)c2=O)cc1 (stereo not shown) ?
[A] FALSE

---

system: Alternaria solani; assay: Mycelial growth test; format: cell-based; conditions: Alternaria solani, 72 h, AS, 10 ppm, read-out: Percent Fungus Growth Inhibition
Measured inhibition at 10 ppm by item
Write the answer as a number in %, unit excluded.

[
  {
    "MOLECULE": "CC(=O)Nc1ccc(Oc2nsnc(Cl)c2=O)cc1 [Compound 8]",
    "TEST_VALUE": 41
  },
  {
    "MOLECULE": "CC(=O)c1ccc(Oc2nsnc(Cl)c2=O)cc1 [Compound 47]",
    "TEST_VALUE": 92
  },
  {
    "MOLECULE": "CS(=O)(=O)c1ccc(Oc2nsnc(Cl)c2=O)cc1 [Compound 41]",
    "TEST_VALUE": 58
  },
  {
    "MOLECULE": "CSc1ccc(Oc2nsnc(Cl)c2=O)cc1 [Compound 39]",
    "TEST_VALUE": 33
  },
  {
    "MOLECULE": "O=c1c(Cl)nsnc1Oc1ccccc1 [Compound 2]",
    "TEST_VALUE": 100
  },
  {
    "MOLECULE": "Cc1cc(Cl)c(Oc2nsnc(Cl)c2=O)cc1C [Compound 58]",
    "TEST_VALUE": 48
  },
  {
    "MOLECULE": "COc1cc(Oc2nsnc(Cl)c2=O)cc(OC)c1C(C)=O [Compound 61]",
    "TEST_VALUE": 29
  },
  {
    "MOLECULE": "Cc1cc(Oc2nsnc(Cl)c2=O)cc(C)c1Br [Compound 60]",
    "TEST_VALUE": 43
  },
  {
    "MOLECULE": "O=c1c(Cl)nsnc1Oc1ccc(Cl)c(Cl)c1 [Compound 16]",
    "TEST_VALUE": 50
  },
  {
    "MOLECULE": "O=c1c(Cl)nsnc1Oc1ccc(Br)cc1 [Compound 15]",
    "TEST_VALUE": 66
  }
]

// next item, inhibition at 10 ppm requested
Fill in: Alternaria solani inhibition at 10 ppm for Cc1ccc(Oc2nsnc(Cl)c2=O)c(Br)c1 [Compound 57] = 90
